Just for reference, ChEMBL document CHEMBL5120830 is where these values come from.

Target: Aldo-keto reductase family 1 member C2 (Homo sapiens)
Sequence (P52895 whole entry): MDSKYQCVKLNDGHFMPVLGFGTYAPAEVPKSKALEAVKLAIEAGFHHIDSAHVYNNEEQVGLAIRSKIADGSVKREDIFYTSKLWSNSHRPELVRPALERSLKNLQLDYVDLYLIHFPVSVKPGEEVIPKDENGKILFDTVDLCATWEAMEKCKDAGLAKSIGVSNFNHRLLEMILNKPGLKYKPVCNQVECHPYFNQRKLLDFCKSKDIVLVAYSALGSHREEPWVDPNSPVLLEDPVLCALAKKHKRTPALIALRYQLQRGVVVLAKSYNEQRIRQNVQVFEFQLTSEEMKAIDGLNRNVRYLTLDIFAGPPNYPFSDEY
Test: Inhibition of recombinant human AKR1C2 transfected in Escherichia coli BL21 assessed as reduction in NADP+-dependent S-tetralol oxidation incubated for 20 mins by absorbance based analysis
pIC50: −log10 of the molar value.
endpoint: pIC50

// query pIC50 value for entry COc1ccc2[nH]c(C(=O)N3CCC(CC(C)(C)O)CC3)cc2c1 [ASP-9521]
< 4.70

---

Test: Solubility of the compound in PBS at pH 7.4 incubated for 24 hrs by UHPLC analysis
Type: physicochemical
Exercise: state measured solubility at 24 h for each of the compounds provided.

// query solubility at 24 h value for entry COc1ccc(Cn2nnc(O)c2C(=O)Nc2cccc(-c3ccccc3)c2)cc1
< 1 µM

// query solubility at 24 h value for entry COc1ccc(Cn2nnc(O)c2C(=O)Nc2ccc(Oc3ccccc3)cc2)cc1
< 1 µM

// query solubility at 24 h value for entry COc1ccc(Cn2nnc(O)c2C(=O)Nc2cccc(-c3cccc(OC)c3)c2)cc1
< 1 µM

// query solubility at 24 h value for entry COc1ccc(Cn2nnc(O)c2C(=O)Nc2ccc(-c3ccccc3)cc2)cc1
< 1 µM

// query solubility at 24 h value for entry COc1ccc(Cn2nnc(O)c2C(=O)Nc2cccc(-c3ccc(OC)cc3)c2)cc1
< 1 µM

// query solubility at 24 h value for entry COc1ccc(Cn2nnc(O)c2C(=O)Nc2cccc(Oc3ccccc3)c2)cc1
< 1 µM
